assayed_system: T1, Ala mutant of TA0096, SEQ ID NO: 34
T1 peptide: EENMDDQAMQDEMEIGY
protocol_notes: ELISA, coated peptide
Quick reference: OD 490/630 nm of the listed items.
Just the number.

Examples with answers:
- binder: "G8 (antibody, V domains shown, Chicken variable regions in a mouse chimeric antibody (IgG1); also called anti-PAD4 antibody G8) VH: AVTLDESGGGLQTPGGALSLVCKASGFTFSTYAMGWMRQAPGKGLEYVAAIRNDGSWTGYGAAVKGRATILRDNGQSTVRLQLSNLRAEDTGTYYCAKYTGSSGGSIGAWGHGTEVIVS VL: ASTQPSSVSANLGGTVEITCSGGNRNYYYGWYQQKSPGSAPVTLIYANDKRPSNIPSRFSGSKSGSTGTLTITGVQAEDEAVYFCGTADTGKYVFGAGTTLTVL"
  OD 490/630 nm: 0.04
- binder: "A11 (antibody, V domains shown, Chicken variable regions in a mouse chimeric antibody (IgG1); also called anti-PAD4 antibody A11) VH: AVTLDESGGGLQTPGGALSLVCKASGFDFSSYGMGWMRQAPGKGLEYVAAIRNDGSWTGYGAAVKGHATISRDNGQSTVRLQLNNLRAEDTGTYYCAKTTGSRGGSIDAWGHGTEVIVS VL: ASTQPSSVSANLGGTVEITCSGGGRYYYGWYQQKSPGSAPVTVIYANDKRPSDIPSRFSGSKSGSTGTLTITGVQAEDEAVYFCGSAETSSYVFGAGTTLTVL"
  OD 490/630 nm: 0.021
- binder: "E9 (antibody, V domains shown, Chicken variable regions in a mouse chimeric antibody (IgG1); also called anti-PAD4 antibody E9) VH: AVTLDESGGGLQTPGGTLSLVCKGSGFTFSSYGMGWMRQAPGKGLEYVAAIRNDGSWTGYGSAVKGRATISRDNGQSTVRLQLNNLRAEDTATYYCAKTSGSSGGSVDAWGHGTEVIVS VL: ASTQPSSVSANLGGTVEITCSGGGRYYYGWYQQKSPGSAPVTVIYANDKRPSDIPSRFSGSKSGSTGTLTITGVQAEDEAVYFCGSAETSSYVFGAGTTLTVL"
  OD 490/630 nm: 0.047

Please find the next binder below.
[in] So what's the measured OD 490/630 nm for this one? G9 (antibody, V domains shown, Chicken variable regions in a mouse chimeric antibody (IgG1); also called anti-PAD4 antibody G9) VH: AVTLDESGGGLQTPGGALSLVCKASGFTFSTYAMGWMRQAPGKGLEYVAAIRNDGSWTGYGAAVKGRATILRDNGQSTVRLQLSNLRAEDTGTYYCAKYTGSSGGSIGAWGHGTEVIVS VL: AVTQPASVSANLGGTVEITCSGGGRYYYGWYQQKSPGSAPVTVIYANDKRPSDIPSRFSGSKSGSTGTLTITGVQAEDEAVYFCGSAETSSYVFGAGTTLTVL
[out] 0.038
